# System: human naive T-cells (PBMC)
# runDescription: Primary in vitro sensitization culture of PBMC with or without mitomycin C treated T2 cells, 3H-thymidine uptake
# Type: cell-based
# studyConditions: PBMC incubated 6 days with mitomycin C treated T2 cells
measurementName: response of PBMC, FIG. 4

>  <compound>
Oc1ccccc1O [catechol]

>  <recordedResult>
positive response

$$$$
>  <compound>
Nc1ccc(N)cc1 [paraphenylenediamine]

>  <recordedResult>
positive response

$$$$
>  <compound>
Nc1ccc(O)cc1 [p-aminophenol]

>  <recordedResult>
positive response

$$$$
